molecular target: pooled human IgG (human IgG1, 2, 3 and 4)
property.measured: Enzyme Activity Endpoint Assay (purified): Fab′2

INSERT INTO results (protein, recorded_value) VALUES
  ('PRT-392 (protein) MVTSVWTKGVTPPTNFTYGEDVLHAPYVANQGWYDITKTFNGKDDLLCGAATAGNMLHWWFDQNKEQIENYLKKHPEKQKINFNGEQMFDVKEAIDTKDSQLDSKLFEYFKEKAFPYLSTKHLGVFPDHVIDMFINGYRLSLTNHGPTPVKRGSKDPRGGIFDAVFTRGVQSKLLTNRHDFKEKTLKEISDLIKQELTEGKALGISHTYANVRINHVINLWGADFDAEGNLEAIYVTDSDSNASIGMKKYFVGVNSNGKVAISAKEIEEDNIGAQVLGLFTLSTGQDIWNQTN', '513 ng/µL'),
  ('PRT-406 (protein) MVTSVWTKGVTPPADFTQGEDVFHAPYVANQGWYDITKTFNRKDDLLCGAATAGNMLHWWFDQNKEYIEAYLKKHPEKQKIMFGDQELLDVRKAINTKGSQKNSELFNYFRDKAFPNLSARRLGVMPDLVLDMFINGYYLNVTKTQTTDVNRTYQEKDKRGGIFDAVFTRGDQSKLLTSRHDFKEKGLKEISDLIKQELTEGKALGLSHTYANVRINHVINLWGADFDSDGNLKAIYVTDSDSNASIGMKKYFVGVNSAGKVAISAKEIKEDNIGAQVLGLFTLSTGQDIWNQTN', '435 ng/µL');
